Listing of entries alongside the reported Dmax.
Molecular target: HiBit-BRG1 fusion protein (Homo sapiens, UniProt P51532)
Construct: expressed in transfected cells
Sequence (P51532 whole entry, the tested form may be a part): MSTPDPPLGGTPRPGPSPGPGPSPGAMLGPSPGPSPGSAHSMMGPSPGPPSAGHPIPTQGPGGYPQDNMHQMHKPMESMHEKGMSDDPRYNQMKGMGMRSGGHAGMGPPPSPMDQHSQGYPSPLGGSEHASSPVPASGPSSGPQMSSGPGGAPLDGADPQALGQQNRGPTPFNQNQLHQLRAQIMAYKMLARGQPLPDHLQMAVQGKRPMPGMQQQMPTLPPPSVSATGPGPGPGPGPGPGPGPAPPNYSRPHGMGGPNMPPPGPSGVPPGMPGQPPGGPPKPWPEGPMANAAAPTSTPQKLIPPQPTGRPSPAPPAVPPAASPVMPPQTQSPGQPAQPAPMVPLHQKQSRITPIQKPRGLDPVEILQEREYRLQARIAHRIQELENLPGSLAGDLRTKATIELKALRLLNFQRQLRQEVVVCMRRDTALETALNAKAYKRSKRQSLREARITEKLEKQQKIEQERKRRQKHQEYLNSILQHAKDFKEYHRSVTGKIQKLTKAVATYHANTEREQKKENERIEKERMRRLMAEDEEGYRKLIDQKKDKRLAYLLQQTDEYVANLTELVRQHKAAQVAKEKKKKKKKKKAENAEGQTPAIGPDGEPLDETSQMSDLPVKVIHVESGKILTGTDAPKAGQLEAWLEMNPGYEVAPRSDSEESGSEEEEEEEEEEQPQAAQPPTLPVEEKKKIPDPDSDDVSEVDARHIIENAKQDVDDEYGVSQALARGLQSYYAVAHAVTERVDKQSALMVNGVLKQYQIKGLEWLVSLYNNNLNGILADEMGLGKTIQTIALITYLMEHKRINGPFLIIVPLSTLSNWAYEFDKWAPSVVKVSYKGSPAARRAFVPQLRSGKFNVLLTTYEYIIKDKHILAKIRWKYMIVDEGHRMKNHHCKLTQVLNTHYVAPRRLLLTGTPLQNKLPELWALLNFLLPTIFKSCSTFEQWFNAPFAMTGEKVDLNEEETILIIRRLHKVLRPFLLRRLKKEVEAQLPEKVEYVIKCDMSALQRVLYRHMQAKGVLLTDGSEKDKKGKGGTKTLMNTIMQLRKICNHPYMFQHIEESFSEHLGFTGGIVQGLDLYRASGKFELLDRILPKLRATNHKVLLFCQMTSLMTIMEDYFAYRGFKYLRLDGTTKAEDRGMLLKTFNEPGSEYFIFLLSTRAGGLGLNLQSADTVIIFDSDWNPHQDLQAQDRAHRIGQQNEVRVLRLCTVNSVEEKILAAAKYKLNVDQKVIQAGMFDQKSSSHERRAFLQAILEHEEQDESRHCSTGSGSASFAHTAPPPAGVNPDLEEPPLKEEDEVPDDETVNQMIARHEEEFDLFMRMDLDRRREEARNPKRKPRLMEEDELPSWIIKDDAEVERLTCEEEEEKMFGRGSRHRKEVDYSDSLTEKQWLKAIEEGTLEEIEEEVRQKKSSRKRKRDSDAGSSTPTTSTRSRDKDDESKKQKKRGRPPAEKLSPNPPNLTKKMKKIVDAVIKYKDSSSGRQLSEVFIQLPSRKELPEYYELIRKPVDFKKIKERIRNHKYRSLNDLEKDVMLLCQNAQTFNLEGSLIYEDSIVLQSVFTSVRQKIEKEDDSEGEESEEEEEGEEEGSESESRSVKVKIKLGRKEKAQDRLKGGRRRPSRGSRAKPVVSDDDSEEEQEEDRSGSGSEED
Test: HiBiT-BRG1 cell-based degradation assay (Nano-Glo HiBiT Lytic Detection, 24 h)
Conditions: HeLa cell line expressing HiBit-BRG1 and LgBit, read-out: BRG1 HiBit Degradation Maximum (%)

Can you look up the measured Dmax of Cc1ncsc1-c1ccc([C@H](C)NC(=O)[C@@H]2C[C@@H](O)CN2C(=O)[C@@H](c2cc(OCCN3CC4(C3)CN(c3cc5cc(-c6ccccc6O)nnc5[nH]3)C4)no2)C(C)C)cc1 (racemic) [Compound 226] for me?
> 75%

====

Molecular target: HiBit-BRM fusion protein (Homo sapiens)
Construct: expressed in transfected cells
Assay: HiBiT-BRM cell-based degradation assay (Nano-Glo HiBiT Lytic Detection, 24 h)
Settings: HeLa cell line expressing HiBiT-BRM, read-out: BRM HiBit Degradation IC50
measured_metric: DC50

Guide cases for DC50, answers given:
{"compound": "Cc1ncsc1-c1ccc([C@H](C)NC(=O)[C@@H]2C[C@@H](O)CN2C(=O)[C@@H](c2cc(N3CCC(CN(C)[C@H]4CCc5[nH]c6nnc(-c7ccccc7O)cc6c5C4)CC3)no2)C(C)C)cc1", "DC50": "> 10 nM"}
{"compound": "Cc1ncsc1-c1ccc([C@H](C)NC(=O)[C@@H]2C[C@@H](O)CN2C(=O)[C@@H](c2cc(OCCN3CC(c4cc5cc(-c6cc(F)ccc6O)nnc5[nH]4)C3)no2)C(C)C)cc1 (racemic)", "DC50": "> 100 nM"}
{"compound": "Cc1ncsc1-c1ccc([C@H](C)NC(=O)[C@@H]2C[C@@H](O)CN2C(=O)[C@@H](c2cc(N3CCC(CN[C@H]4CCc5[nH]c6nnc(-c7ccccc7O)cc6c5C4)CC3)no2)C(C)C)cc1", "DC50": "> 10 nM"}
{"compound": "Cc1ncsc1-c1ccc([C@H](C)NC(=O)[C@@H]2C[C@@H](O)CN2C(=O)[C@@H](c2cc(OCCN3CCC[C@H]3c3cc4cc(-c5ccccc5O)nnc4[nH]3)no2)C(C)C)cc1 (racemic)", "DC50": "> 10 nM"}
{"compound": "Cc1ncsc1-c1ccc([C@H](C)NC(=O)[C@@H]2C[C@@H](O)CN2C(=O)[C@@H](c2cc(OCCN3CC(C(C)(C)c4cc5cc(-c6ccccc6O)nnc5[nH]4)C3)no2)C(C)C)cc1 (racemic)", "DC50": "> 10 nM"}

Turning now to a further record.
Can you look up the measured DC50 of Cc1ncsc1-c1ccc([C@H](C)NC(=O)[C@@H]2C[C@@H](O)CN2C(=O)[C@@H](c2cc(CCN3CC(c4cc5cc(-c6ccccc6O)nnc5[nH]4)C3)no2)C(C)C)cc1 (single isomer, unassigned) for me?
> 100 nM

====

Target: HiBit-BRM fusion protein (Homo sapiens)
Construct: expressed in transfected cells
Test: HiBiT-BRM cell-based degradation assay (Nano-Glo HiBiT Lytic Detection, 24 h)
Conditions: HeLa cell line expressing HiBiT-BRM, read-out: BRM HiBit Degradation IC50
measured_metric: DC50

Guide cases for DC50, answers given:
{"molecule": "Cc1ncsc1-c1ccc([C@H](C)NC(=O)[C@@H]2C[C@@H](O)CN2C(=O)[C@@H](c2cc(N3CCN(C(=O)C(=O)N4CC(c5c[nH]c6nnc(-c7ccccc7O)cc56)C4)CC3)no2)C(C)C)cc1 (racemic)", "measurement": "> 100 nM"}
{"molecule": "Cc1ncsc1-c1ccc([C@H](C)NC(=O)[C@@H]2C[C@@H](O)CN2C(=O)[C@@H](c2cc(OCCCN[C@@H]3CCc4[nH]c5nnc(-c6ccccc6O)cc5c4C3)no2)C(C)C)cc1 (single isomer, unassigned)", "measurement": "> 100 nM"}

Turning now to a further record.
Can you look up the measured DC50 of `Cc1ncsc1-c1ccc([C@H](C)NC(=O)[C@@H]2C[C@@H](O)CN2C(=O)[C@@H](NC(=O)CCCCCCCCCCCCC(=O)N2CC(c3cc4cc(-c5ccccc5O)nnc4[nH]3)C2)C(C)(C)C)cc1` for me?
> 100 nM

====

Biological target: HiBit-BRG1 fusion protein (Homo sapiens)
Construct: expressed in transfected cells
Assay: HiBiT-BRG1 cell-based degradation assay (Nano-Glo HiBiT Lytic Detection, 24 h)
Details: HeLa cell line expressing HiBit-BRG1 and LgBit, read-out: BRG1 HiBit Degradation Maximum (%)
Listing of entries alongside the reported Dmax.

Guide cases for Dmax, answers given:
{"compound": "Cc1ncsc1-c1ccc(CNC(=O)[C@@H]2C[C@@H](O)CN2C(=O)[C@@H](NC(=O)CCCCCCCCCCCCCCC(=O)N2CC(c3c[nH]c4nnc(-c5ccccc5O)cc34)C2)C(C)(C)C)cc1", "Dmax": "< 50%"}
{"compound": "O=C1CCC(N2C(=O)c3cccc(OCCCC(=O)N4CC(c5cc6cc(-c7ccccc7O)nnc6[nH]5)C4)c3C2=O)C(=O)N1 (stereo not shown)", "Dmax": "> 75%"}
{"compound": "Cc1ncsc1-c1ccc(CNC(=O)[C@@H]2C[C@@H](O)CN2C(=O)[C@@H](NC(=O)[C@H]2CC[C@@H](c3cnc(N4CCC(c5cc6cc(-c7ccccc7O)nnc6[nH]5)CC4)nc3)CC2)C(C)(C)C)cc1 (racemic)", "Dmax": "< 50%"}

Can you look up the measured Dmax of Cc1ncsc1-c1ccc([C@H](C)NC(=O)[C@@H]2C[C@@H](O)CN2C(=O)[C@@H](c2cc(N3CCC(N4CC5(Cc6cc(-c7ccccc7O)nnc6N5)C4)CC3)no2)C(C)C)cc1 (racemic) for me?
< 50%

====

Listing of entries alongside the reported Dmax.
Molecular target: HiBit-BRG1 fusion protein (Homo sapiens, UniProt P51532)
Construct: expressed in transfected cells
Assay: HiBiT-BRG1 cell-based degradation assay (Nano-Glo HiBiT Lytic Detection, 24 h)
Details: HeLa cell line expressing HiBit-BRG1 and LgBit, read-out: BRG1 HiBit Degradation Maximum (%)

{"compound": "Cc1ncsc1-c1ccc(CNC(=O)[C@@H]2C[C@@H](O)CN2C(=O)[C@@H](NC(=O)CCCCCCCC(=O)N2CC(c3cc4cc(-c5ccccc5O)nnc4[nH]3)C2)C(C)(C)C)cc1", "measurement": "< 50%"}
{"compound": "Cc1ncsc1-c1ccc([C@H](C)NC(=O)[C@@H]2C[C@@H](O)CN2C(=O)[C@@H](c2cc(OCCN3CC(c4[nH]c5nnc(-c6ccccc6O)cc5c4C)C3)no2)C(C)C)cc1 (racemic)", "measurement": "> 75%"}

Turning now to a further record.
Can you look up the measured Dmax of Cc1ncsc1-c1ccc([C@H](C)NC(=O)[C@@H]2C[C@@H](O)CN2C(=O)[C@@H](c2cc(N3C[C@H]4C[C@@H]3CN4C(=O)[C@H]3C[C@]4(Cc5cc(-c6ccccc6O)nnc5N4)C3)no2)C(C)C)cc1 (racemic) for me?
< 50%

====

Listing of entries alongside the reported DC50.
Target: HiBit-BRM fusion protein (Homo sapiens, UniProt P51531)
Construct: expressed in transfected cells
Sequence (P51531 whole entry, the tested form may be a part): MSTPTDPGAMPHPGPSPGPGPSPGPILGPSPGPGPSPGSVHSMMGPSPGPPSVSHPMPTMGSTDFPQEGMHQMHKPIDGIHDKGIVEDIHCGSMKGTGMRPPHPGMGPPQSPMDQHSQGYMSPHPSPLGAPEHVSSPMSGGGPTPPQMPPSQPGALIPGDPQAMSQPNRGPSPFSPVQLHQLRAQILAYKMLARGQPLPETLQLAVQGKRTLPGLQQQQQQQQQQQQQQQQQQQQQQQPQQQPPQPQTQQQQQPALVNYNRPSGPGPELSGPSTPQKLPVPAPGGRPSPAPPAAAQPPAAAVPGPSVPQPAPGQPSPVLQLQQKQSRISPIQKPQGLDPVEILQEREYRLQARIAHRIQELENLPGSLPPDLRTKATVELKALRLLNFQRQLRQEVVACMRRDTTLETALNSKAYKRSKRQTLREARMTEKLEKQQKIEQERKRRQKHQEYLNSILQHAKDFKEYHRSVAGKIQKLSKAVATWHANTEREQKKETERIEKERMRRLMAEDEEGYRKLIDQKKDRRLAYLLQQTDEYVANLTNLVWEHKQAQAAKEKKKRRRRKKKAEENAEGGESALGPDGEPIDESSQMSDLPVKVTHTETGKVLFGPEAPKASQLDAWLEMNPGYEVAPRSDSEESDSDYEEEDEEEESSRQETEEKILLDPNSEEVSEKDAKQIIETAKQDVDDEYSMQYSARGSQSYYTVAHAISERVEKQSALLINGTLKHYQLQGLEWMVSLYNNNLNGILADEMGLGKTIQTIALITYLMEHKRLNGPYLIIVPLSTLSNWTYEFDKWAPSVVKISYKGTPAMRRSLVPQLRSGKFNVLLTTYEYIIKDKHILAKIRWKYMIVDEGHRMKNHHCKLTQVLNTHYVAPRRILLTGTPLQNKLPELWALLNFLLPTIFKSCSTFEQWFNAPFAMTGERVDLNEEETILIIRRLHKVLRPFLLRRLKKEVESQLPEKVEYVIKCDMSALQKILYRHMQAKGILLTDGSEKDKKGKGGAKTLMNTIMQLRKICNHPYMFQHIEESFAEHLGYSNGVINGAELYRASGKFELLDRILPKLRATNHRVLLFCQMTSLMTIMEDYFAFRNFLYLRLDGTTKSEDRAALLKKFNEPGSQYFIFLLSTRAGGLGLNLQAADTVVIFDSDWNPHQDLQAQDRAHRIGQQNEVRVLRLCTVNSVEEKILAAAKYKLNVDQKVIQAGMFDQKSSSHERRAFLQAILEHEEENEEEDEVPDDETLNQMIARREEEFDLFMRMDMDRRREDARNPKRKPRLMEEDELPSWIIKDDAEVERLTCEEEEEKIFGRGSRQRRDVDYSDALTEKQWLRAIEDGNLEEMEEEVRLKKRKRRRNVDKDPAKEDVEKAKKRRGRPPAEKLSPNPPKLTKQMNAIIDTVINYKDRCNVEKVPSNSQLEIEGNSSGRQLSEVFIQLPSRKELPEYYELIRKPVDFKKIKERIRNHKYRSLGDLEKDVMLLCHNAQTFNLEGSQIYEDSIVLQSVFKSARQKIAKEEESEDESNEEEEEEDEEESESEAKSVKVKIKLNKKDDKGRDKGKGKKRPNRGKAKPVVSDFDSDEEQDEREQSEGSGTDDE
Assay: HiBiT-BRM cell-based degradation assay (Nano-Glo HiBiT Lytic Detection, 24 h)
Conditions: HeLa cell line expressing HiBiT-BRM, read-out: BRM HiBit Degradation IC50
Counter-ions that a name gives are not always drawn.

Guide cases for DC50, answers given:
{"molecule": "Cc1ncsc1-c1ccc([C@H](C)NC(=O)[C@@H]2C[C@@H](O)CN2C(=O)[C@@H](c2cc(OCCN3CC(c4cc5cc(-c6ccccc6O)nnc5[nH]4)C3)no2)C(C)C)cc1 [Compound 14, formate]", "measurement": "> 10 nM"}
{"molecule": "Cc1ncsc1-c1ccc([C@H](C)NC(=O)[C@@H]2C[C@@H](O)CN2C(=O)[C@@H](c2cc(OCCN3C[C@@H]4[C@H](C3)[C@H]4c3cc4cc(-c5ccccc5O)nnc4[nH]3)no2)C(C)C)cc1 (racemic)", "measurement": "< 10 nM"}
{"molecule": "Cc1ncsc1-c1ccc([C@H](C)NC(=O)[C@@H]2C[C@@H](O)CN2C(=O)[C@@H](c2cc(C3CCN(Cc4cc5cc(-c6ccccc6O)nnc5[nH]4)CC3)no2)C(C)C)cc1 (racemic)", "measurement": "> 10 nM"}
{"molecule": "Cc1ncsc1-c1ccc([C@H](C)NC(=O)[C@@H]2C[C@@H](O)CN2C(=O)[C@@H](c2cc(OCCN3CC(CCCc4cc5cc(-c6ccccc6O)nnc5[nH]4)C3)no2)C(C)C)cc1 (racemic)", "measurement": "> 100 nM"}

Turning now to a further record.
Can you look up the measured DC50 of Cc1ncsc1-c1ccc([C@H](C)NC(=O)[C@@H]2C[C@@H](O)CN2C(=O)[C@@H](c2cc(OCCN3CC(c4[nH]c5nnc(-c6cc(F)ccc6O)cc5c4C)C3)no2)C(C)C)cc1 (racemic) for me?
< 10 nM
